Below, each entry is listed alongside its reported abundance fitness.
B1: SH3 and PX domain-containing protein 2B, residues 155 to 209; numbered along this chain, A1X283 (parent)
chain: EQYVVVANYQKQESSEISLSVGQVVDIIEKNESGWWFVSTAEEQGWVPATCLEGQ

variants of: B1; assay: abundance fitness (aPCA) (normalised: wild type 0, dead -1); higher = more abundant; growth selection in yeast, the domain comes from the species named; conditions: Homo sapiens

Completed entries (count: 3):
// abundance fitness lookup, variant = S14A , result: -0.13

For record W46K the listed abundance fitness is -0.273

# abundance fitness of S39Y = -0.312

Continuing:
abundance fitness for V6F is -0.131

Measured values drawn from the Human Domainome abundance scans (Beltran et al. 2025) for this set.
